Test system: AMPA
Experiment: Binding AMPA (ag)
Set-up: species or system rat
Result type: % Inhibition of Control Specific Binding @ 10 μM (%)
A number alone suffices; assume %.

Ask: # lookup: % Inhibition of Control Specific Binding @ 10 μM of CNC(=O)c1ccc(N2C(=O)N(c3ccc(C#N)c(C(F)(F)F)c3)C(=O)C2(C)C)cc1F [(MIV)]
Reply: −4

Ask: Next record, please: CC1(C)C(=O)N(c2ccc(C#N)c(C(F)(F)F)c2)C(=O)N1c1ccc(C(N)=O)c(F)c1 [(MIII)]
Reply: −2

Ask: Next record, please: CC1(C)C(=O)N(c2ccc(C#N)c(C(F)(F)F)c2)C(=S)N1c1ccc(C(=O)O)c(F)c1 [(MI)]
Reply: 1

Ask: Next record, please: CC1(C)C(=O)N(c2ccc(C#N)c(C(F)(F)F)c2)C(=S)N1c1ccc(C(N)=O)c(F)c1 [(MII)]
Reply: −10

---

System: GABA (ns)
Experiment: Binding GABA (ns) (ag)
Parameters: species or system rat
Result type: % Inhibition of Control Specific Binding @ 10 μM (%)
A number alone suffices; assume %.

Ask: # lookup: % Inhibition of Control Specific Binding @ 10 μM of `CC1(C)C(=O)N(c2ccc(C#N)c(C(F)(F)F)c2)C(=O)N1c1ccc(C(N)=O)c(F)c1`
Reply: −10

Ask: Next record, please: `CNC(=O)c1ccc(N2C(=O)N(c3ccc(C#N)c(C(F)(F)F)c3)C(=O)C2(C)C)cc1F`
Reply: 5

Ask: Next record, please: `CC1(C)C(=O)N(c2ccc(C#N)c(C(F)(F)F)c2)C(=S)N1c1ccc(C(N)=O)c(F)c1`
Reply: 0

Ask: Next record, please: `CC1(C)C(=O)N(c2ccc(C#N)c(C(F)(F)F)c2)C(=S)N1c1ccc(C(=O)O)c(F)c1`
Reply: −12

---

Test system: Benzodiazepine BZD (central)
Assay: Binding BZD (central) (ag)
Parameters: species or system rat
Result type: % Inhibition of Control Specific Binding @ 10 μM (%)
A number alone suffices; assume %.

Ask: # lookup: % Inhibition of Control Specific Binding @ 10 μM of `CNC(=O)c1ccc(N2C(=O)N(c3ccc(C#N)c(C(F)(F)F)c3)C(=O)C2(C)C)cc1F`
Reply: −29

Ask: Next record, please: `CC1(C)C(=O)N(c2ccc(C#N)c(C(F)(F)F)c2)C(=S)N1c1ccc(C(N)=O)c(F)c1`
Reply: −37

Ask: Next record, please: `CC1(C)C(=O)N(c2ccc(C#N)c(C(F)(F)F)c2)C(=O)N1c1ccc(C(N)=O)c(F)c1`
Reply: −20

Ask: Next record, please: `CC1(C)C(=O)N(c2ccc(C#N)c(C(F)(F)F)c2)C(=S)N1c1ccc(C(=O)O)c(F)c1`
Reply: −35

---

Test system: KATP channel
Assay: Binding KATP channel (aa)
Parameters: species or system rat
Result type: % Inhibition of Control Specific Binding @ 10 μM (%)
A number alone suffices; assume %.

Ask: # lookup: % Inhibition of Control Specific Binding @ 10 μM of `CC1(C)C(=O)N(c2ccc(C#N)c(C(F)(F)F)c2)C(=O)N1c1ccc(C(N)=O)c(F)c1`
Reply: 7

Ask: Next record, please: `CC1(C)C(=O)N(c2ccc(C#N)c(C(F)(F)F)c2)C(=S)N1c1ccc(C(N)=O)c(F)c1`
Reply: 24

Ask: Next record, please: `CNC(=O)c1ccc(N2C(=O)N(c3ccc(C#N)c(C(F)(F)F)c3)C(=O)C2(C)C)cc1F`
Reply: 7

Ask: Next record, please: `CC1(C)C(=O)N(c2ccc(C#N)c(C(F)(F)F)c2)C(=S)N1c1ccc(C(=O)O)c(F)c1`
Reply: 17
